Molecular target: T1, full-length human Tau (Tau441; 2N4R), recombinant (human, UniProt P10636 1-758)
T1 construct: made in E. coli, His6-Smt3 tag removed; biotinylated through amines for Octet and phage work; also called r-Tau; recombinant Tau
T1 sequence (P10636 other isoform, or with tags, fused parts or gaps limits assumed): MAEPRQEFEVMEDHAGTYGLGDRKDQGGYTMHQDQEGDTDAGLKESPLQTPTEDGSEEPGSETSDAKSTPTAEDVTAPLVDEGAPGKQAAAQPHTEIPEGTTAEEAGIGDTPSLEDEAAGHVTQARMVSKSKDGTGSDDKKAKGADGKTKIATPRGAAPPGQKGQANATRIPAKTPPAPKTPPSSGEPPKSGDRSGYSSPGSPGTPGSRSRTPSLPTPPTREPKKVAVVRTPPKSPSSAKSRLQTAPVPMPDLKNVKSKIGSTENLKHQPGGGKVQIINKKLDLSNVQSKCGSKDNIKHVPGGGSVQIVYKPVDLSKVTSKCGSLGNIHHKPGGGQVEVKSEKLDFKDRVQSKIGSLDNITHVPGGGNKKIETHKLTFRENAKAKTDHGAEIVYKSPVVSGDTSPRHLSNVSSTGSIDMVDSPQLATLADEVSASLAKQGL
Assay: SPR Biacore
So basically, if Kd comes in under 0.5 nM it's 1, and if it's 0.5 nM or more it's 0.

Clone with L1_3, L3, and H1_HCv2 (antibody, V domains shown) VH: EVQLLESGGGLVQPGGSLRLSCAASGFTFSQVGMSWVRQAPGKGLEWVASISGDGGSYIHYADSVKGRFTISRDNSKNTLYLQMNSLRAEDTAVYYCARLPYWGQGTLVTVSS VL: DIVMTQSPDSLAVSLGERATINCKSSQSLHRSGTQKDYLVWYQQKPGQPPKLLIYWASTRESGVPDRFSGSGSGTDFTLTISSLQAEDVAVYYCQQYNSYPLTFGQGTKVEIK: 1
Clone with L1_6 (antibody, V domains shown, based on hu1C7.v2) VH: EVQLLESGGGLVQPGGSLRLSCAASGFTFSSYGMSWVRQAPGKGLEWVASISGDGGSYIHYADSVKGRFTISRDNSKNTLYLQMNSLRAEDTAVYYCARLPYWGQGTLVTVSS VL: DIVMTQSPDSLAVSLGERATINCKSSQSLLQSGNQKNYLTWYQQKPGQPPKLLIYWASTRESGVPDRFSGSGSGTDFTLTISSLQAEDVAVYYCQQYNSYPLTFGQGTKVEIKR: 0
Clone with L1_5 (antibody, V domains shown, based on hu1C7.v2) VH: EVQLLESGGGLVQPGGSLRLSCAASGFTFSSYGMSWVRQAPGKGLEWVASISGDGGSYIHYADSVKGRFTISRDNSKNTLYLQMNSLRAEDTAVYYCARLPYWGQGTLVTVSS VL: DIVMTQSPDSLAVSLGERATINCKSSQSLLSSGNQKNYLTWYQQKPGQPPKLLIYWASTRESGVPDRFSGSGSGTDFTLTISSLQAEDVAVYYCQQYNSYPLTFGQGTKVEIKR: 0
Clone with H1_2-3 (antibody, V domains shown, based on hu1C7.v2) VH: EVQLLESGGGLVQPGGSLRLSCAASGFTFSQVGTSWVRQAPGKGLEWVASISGDGGSYIHYADSVKGRFTISRDNSKNTLYLQMNSLRAEDTAVYYCARLPYWGQGTLVTVSS VL: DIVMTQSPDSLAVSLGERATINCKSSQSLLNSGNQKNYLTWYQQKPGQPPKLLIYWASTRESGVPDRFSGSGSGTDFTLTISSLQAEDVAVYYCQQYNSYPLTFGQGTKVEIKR: 1
Clone with H1_4-2 (antibody, V domains shown, based on hu1C7.v2) VH: EVQLLESGGGLVQPGGSLRLSCAASGFQFSGPGMSWVRQAPGKGLEWVASISGDGGSYIHYADSVKGRFTISRDNSKNTLYLQMNSLRAEDTAVYYCARLPYWGQGTLVTVSS VL: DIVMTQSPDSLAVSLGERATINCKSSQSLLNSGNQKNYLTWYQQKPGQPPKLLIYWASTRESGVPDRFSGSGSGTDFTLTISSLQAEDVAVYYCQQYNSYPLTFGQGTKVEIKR: 1
